- Test system: OVCAR-3
- protocol description: NCI tumour cell line growth inhibition, 48 h
The source made the active and inactive calls. No stated cut-off is given here; in the data, active = GI50 up to about 1.1 µM and inactive = higher.
property: GI50

Example entries begin here.
molecule=COc1cc(CNc2nc3ccccc3n2Cc2ccccc2)cc(CN2CCOCC2)c1O value_measured="20.6 µM (inactive)"
molecule="CC1CC[C@@]2(OC1)OC1C[C@H]3[C@@H]4CCC5CC(O)CC[C@]5(C)[C@H]4C/C(=N\\N(C)C)[C@]3(C)C1[C@@H]2C (stereo partly specified)" value_measured="17.9 µM (inactive)"
molecule="N#CC(NNC(=O)Cc1ccccc1)c1ccccc1O (stereo unspecified)" value_measured="3.75 µM (inactive)"
molecule=COc1ccc2c(C)cc(N/N=C/c3sccc3C)nc2c1 value_measured="2.99 µM (inactive)"

For the 3 molecules below, give their GI50 values.
1. CSC(=S)NN=C1CCCCC1
2. CC(C)(CN1CCCCC1)C(=O)/C=C/c1ccc(Br)cc1
3. c1n[nH]cc1C12C3C4C5C3C1C5C42 (stereo unspecified)

A.
22.3 µM (inactive)
2.07 µM (inactive)
> 100 µM (inactive)

For the 4 molecules below, give their GI50 values.
1. COc1cc(-c2cc(=O)c3c(OC)c(OC)c(OC)c(OC)c3o2)cc(OC)c1OC
2. C#CCOCn1cnc2c(S)ncnc21
3. CCOC(=O)c1c(-c2cccc3ccccc23)c(C#N)c(=S)n(C2OC(COC(C)=O)C(OC(C)=O)C(OC(C)=O)C2OC(C)=O)c1C (stereo unspecified)
4. C=CCCC1CCCCNC1=S (stereo unspecified)

A.
["25.5 µM (inactive)", "> 100 µM (inactive)", "> 100 µM (inactive)", "> 10 µM (inactive)"]

---

- Tested on: HCT-15
property: GI50

Example entries begin here.
compound="CC(=O)O/C=C\\OC1CCCC1(c1ccccc1)c1ccccc1 (centres undefined)" value_measured="2.13 µM"
compound=O=C(Nc1c(O)[nH]c(=S)[nH]c1=O)c1ccccc1F value_measured="> 100 µM"
compound=CCN(CCCN(CC)C(=O)N[C@@H](Cc1ccccc1)C(=O)NC)C(=O)N[C@@H](Cc1ccccc1)C(=O)NC value_measured="> 100 µM"

API: the following record is the query input.
Q. Suppose we examine the compound CC1CC(NN(C)C)C2(C(N)=O)C(N)=NC(=O)C12C#N (centres undefined) ; what GI50 value has been reported?
A. > 100 µM

---

- Test system: CAKI-1
- protocol description: NCI tumour cell line growth inhibition, 48 h
The source made the active and inactive calls. No stated cut-off is given here; in the data, active = GI50 up to about 1.1 µM and inactive = higher.
property: GI50

molecule=Cc1cc(C)c([S@@](=O)O[C@@H]2[C@H]3OC(C)(C)O[C@H]3O[C@@H]2[C@H]2COC(C)(C)O2)c(C)c1 system_tested=CAKI-1 value_measured="2.16 µM (inactive)"
molecule="COc1ccc2c(c1)nc1n2C(c2c(F)cccc2Cl)SC1 (stereo not given)" system_tested=CAKI-1 value_measured="19.1 µM (inactive)"
molecule="O=C(CC(C(=O)c1ccsc1)c1cccs1)c1ccccc1 (stereo not given)" system_tested=CAKI-1 value_measured="> 100 µM (inactive)"
molecule=Cc1nc(C)c(C(=O)Nc2cccc3c2C(=O)NC3=O)cc1C(=O)Nc1cccc2c1C(=O)NC2=O system_tested=CAKI-1 value_measured="> 100 µM (inactive)"
molecule="COc1ccc(/C=C2\\CN(C)CC3=C2OC(N)=C(C#N)C3c2ccc(OC)cc2)cc1 (stereo not given)" system_tested=CAKI-1 value_measured="69.7 µM (inactive)"
molecule="Nc1cc2c(C3OC(CO)C(O)C3O)n[nH]c2c(=S)[nH]1 (stereo not given)" system_tested=CAKI-1 value_measured="54.3 µM (inactive)"

For the 4 molecules below, give their GI50 values.
1. CSC1(Cc2ccccn2)C(=O)Nc2cccc([N+](=O)[O-])c21 (stereo not given)
2. c1ccc2oc(-c3ccc(-c4nc5ccccc5o4)c4c3CC4)nc2c1
3. O=C(O)c1nc2nc(Cl)c(Cl)nc2[nH]1
4. CC(C)(C)c1ccc(-c2nc3ccc(Cl)cc3c(=O)o2)cc1

A.
1: > 100 µM (inactive); 2: > 100 µM (inactive); 3: > 100 µM (inactive); 4: 25.4 µM (inactive)

Source of measurements: ChEMBL document CHEMBL1201862
